Give Fold increase in potency compared to AB-H8 for every item shown.
Target desc: human Siglec-7 on primary human monocyte-derived dendritic cells (human, UniProt Q9Y286 19-467)
Sequence (Q9Y286 19-467): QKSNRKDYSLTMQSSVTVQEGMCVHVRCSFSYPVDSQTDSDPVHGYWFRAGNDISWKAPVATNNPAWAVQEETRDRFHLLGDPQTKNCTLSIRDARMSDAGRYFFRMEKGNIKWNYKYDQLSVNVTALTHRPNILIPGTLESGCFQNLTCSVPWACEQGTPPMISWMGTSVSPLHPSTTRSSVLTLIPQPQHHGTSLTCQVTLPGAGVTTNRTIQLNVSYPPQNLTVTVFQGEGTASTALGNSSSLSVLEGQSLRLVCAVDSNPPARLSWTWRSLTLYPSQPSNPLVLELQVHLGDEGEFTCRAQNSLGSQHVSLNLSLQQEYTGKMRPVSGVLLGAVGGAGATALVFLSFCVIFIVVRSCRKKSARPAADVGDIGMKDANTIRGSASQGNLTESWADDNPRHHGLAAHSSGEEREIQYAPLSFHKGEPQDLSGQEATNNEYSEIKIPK
Protocol notes: cell-based or functional assay
A number alone suffices; assume fold.

// Fold increase in potency compared to AB-H8 lookup, key: S7AB-H8.44.1 (antibody, V domains shown) VH: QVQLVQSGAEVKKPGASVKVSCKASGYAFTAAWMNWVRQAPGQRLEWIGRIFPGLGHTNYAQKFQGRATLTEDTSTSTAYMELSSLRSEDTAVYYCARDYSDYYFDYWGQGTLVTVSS VL: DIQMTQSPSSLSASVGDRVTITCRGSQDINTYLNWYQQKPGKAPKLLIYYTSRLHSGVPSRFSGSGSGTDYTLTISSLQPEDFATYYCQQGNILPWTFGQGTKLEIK
4.9

// Fold increase in potency compared to AB-H8 lookup, key: S7AB-H8.22 (antibody, V domains shown) VH: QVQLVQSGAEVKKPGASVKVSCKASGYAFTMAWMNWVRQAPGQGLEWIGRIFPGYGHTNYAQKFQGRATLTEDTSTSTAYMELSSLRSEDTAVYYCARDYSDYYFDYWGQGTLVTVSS VL: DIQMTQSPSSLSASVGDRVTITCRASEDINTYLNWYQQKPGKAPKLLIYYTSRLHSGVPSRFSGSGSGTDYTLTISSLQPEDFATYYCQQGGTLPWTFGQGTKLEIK
3.1

// Fold increase in potency compared to AB-H8 lookup, key: S7AB-H8.16 (antibody, V domains shown) VH: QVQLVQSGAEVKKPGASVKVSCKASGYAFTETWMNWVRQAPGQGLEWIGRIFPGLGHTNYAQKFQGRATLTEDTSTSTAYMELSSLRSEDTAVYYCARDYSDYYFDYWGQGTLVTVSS VL: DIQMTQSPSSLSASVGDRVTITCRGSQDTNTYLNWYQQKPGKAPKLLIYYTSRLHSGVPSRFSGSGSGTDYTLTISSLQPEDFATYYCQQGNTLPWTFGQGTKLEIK
1

// Fold increase in potency compared to AB-H8 lookup, key: S7AB-H8.40 (antibody, V domains shown) VH: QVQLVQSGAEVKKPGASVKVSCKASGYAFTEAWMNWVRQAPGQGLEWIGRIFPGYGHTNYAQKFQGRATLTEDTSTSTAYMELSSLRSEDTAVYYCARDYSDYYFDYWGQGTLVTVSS VL: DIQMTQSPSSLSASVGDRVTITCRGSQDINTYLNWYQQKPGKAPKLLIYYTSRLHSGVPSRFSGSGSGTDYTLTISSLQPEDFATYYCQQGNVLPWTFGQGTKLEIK
2.9
